# assay.system: Calcium/calmodulin-dependent protein kinase type II subunit alpha (Rattus norvegicus, UniProt P11275)
# Sequence (P11275 whole entry): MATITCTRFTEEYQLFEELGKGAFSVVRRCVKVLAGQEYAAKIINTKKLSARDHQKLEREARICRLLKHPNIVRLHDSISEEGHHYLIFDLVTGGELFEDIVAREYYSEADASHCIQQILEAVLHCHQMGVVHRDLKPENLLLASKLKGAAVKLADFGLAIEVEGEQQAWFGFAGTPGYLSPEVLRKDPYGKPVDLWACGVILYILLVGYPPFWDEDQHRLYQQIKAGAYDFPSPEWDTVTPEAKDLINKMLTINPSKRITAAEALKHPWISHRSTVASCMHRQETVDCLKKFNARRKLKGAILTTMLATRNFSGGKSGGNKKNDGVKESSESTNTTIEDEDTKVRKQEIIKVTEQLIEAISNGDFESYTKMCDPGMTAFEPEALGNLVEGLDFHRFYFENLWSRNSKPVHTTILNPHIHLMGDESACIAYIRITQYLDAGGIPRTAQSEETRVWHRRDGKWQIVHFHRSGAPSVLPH
# test.description: Displacement of [3H]NCS-382 (16 nM) from GHB receptor of rat cerebrocortical membranes
metric.name: pIC50
pIC50 here is simply -log10 of the concentration when that concentration is written in mol/L.

query: State, in one line, measured pIC50 of `O=C(O)Cc1cccc(OCCCc2ccccc2)c1`
result: 5.35

query: State, in one line, measured pIC50 of `O=C(O)Cc1cccc(OCc2ccccc2)c1`
result: 4.34

query: State, in one line, measured pIC50 of `O=C(O)Cc1cccc(OCCc2ccccc2)c1`
result: 5.08

query: State, in one line, measured pIC50 of `O=C(O)Cc1cccc(Oc2ccccc2)c1`
result: 4.79

query: State, in one line, measured pIC50 of `O=C(O)CCCOc1ccccc1`
result: 3.68

query: State, in one line, measured pIC50 of O=C(O)Cc1cccc(O)c1 [3-Hydroxyphenylacetate]
result: 4.92
